src = ChEMBL document CHEMBL1142490

# tested-target: GABA-A receptor; alpha-1/beta-2/gamma-2 (Homo sapiens) (UniProt P14867+P47870+P18507)
# protocol-summary: Agonist activity at human recombinant GABAA alpha-1-beta-2-gamma-2L receptor expressed in Xenopus oocytes assessed as change in GABA-induced chloride current amplitude at 10 uM by voltage clamp technique
# Format: functional, cell-based
# condition-parameters: Oocyte
experimental-endpoint: Activity (%)
The figure you give is taken to be in %; do not add the unit.

CCC(C)N(C)C(=O)c1cc2ccccc2c(-c2ccccc2Cl)n1 (stereo not given)    9.4
CCCN(CCC)C(=O)Cc1c(-c2ccc(Cl)cc2)nc2c(NC(=O)CCCC(=O)O)cccn12    -1.9
CCCN(CCC)C(=O)Cc1c(-c2ccc(Cl)c([N+](=O)[O-])c2)nc2c(Cl)cc(Cl)cn12    9.6
CCCN(CCC)C(=O)Cc1c(-c2ccc([N+](=O)[O-])cc2)nc2c(Cl)cc(Cl)cn12    -16.6
CCCN(CCC)C(=O)Cc1c(-c2ccc(OC(=O)CN)cc2)nc2c(Cl)cc(Cl)cn12    71

Moving on to the next compound.
## Input Note Activity for the compound shown: "CCCN(CCC)C(=O)Cc1c(-c2ccc(Cl)cc2)nc2c(NC(=O)CCC(=O)O)cccn12"
## Output 12.3
